Observed IC50 for UniProtKB Q9GZT9, reported per entry below.
Numeric only. Scale: nM

Solved cases below.
O=C(O)c1cnn(-c2nc(O)c3c(cnn3C(c3cc(F)cc(F)c3)C3CC3)n2)c1 (single isomer, unassigned) [Example 373] | 36
Cc1cc(Cl)cc([C@@H](C)n2ncc3nc(-n4cc(C(=O)O)cn4)nc(O)c32)c1 [Example 266] | 73
Cc1ccc(C(C)n2ncc3nc(-n4cc(C(=O)O)cn4)nc(O)c32)cc1 (single isomer, unassigned) [Example 292] | 39
C[C@@H](c1cc(Cl)ccc1F)n1ncc2nc(-n3cc(C(=O)O)cn3)nc(O)c21 [Example 282] | 77
CCC(c1ccc(C(F)(F)F)cc1)n1ncc2nc(-n3cc(C(=O)O)cn3)nc(O)c21 (single isomer, unassigned) [Example 327] | 290

Lab book: IC50 of C[C@@H](c1cc(C(F)(F)F)ccc1C(F)(F)F)n1ncc2nc(-n3cc(C(=O)O)cn3)nc(O)c21 [Example 275] noted as 120

----------
Observed pIC50 for human HIF-PHD3 (Homo sapiens), reported per entry below.
By convention, pIC50 is the negative base-10 log of a molar concentration.

COc1ccc(Cn2ncc3nc(-n4cc(C(=O)O)cn4)nc(O)c32)cc1 [Example 3] | 6.80
Cc1nn([C@@H](C)c2ccc(F)cc2)c2c(O)nc(-n3cc(C(=O)O)cn3)nc12 [Example 448] | 5.72
O=C(O)c1cnn(-c2nc(O)c3c(cnn3Cc3ccc(-c4ccc(Cl)cc4F)cc3)n2)c1 [Example 74] | 7.14
CC1CC(n2ncc3nc(-n4cc(C(=O)O)cn4)nc(O)c32)CC(C)(C)C1 (stereo not drawn) [Example 407] | 6.34
Cc1nn(C[C@H]2CC[C@H](C(F)(F)F)CC2)c2c(O)nc(-n3cc(C(=O)O)cn3)nc12 [Example 474] | 6.72

Lab book: pIC50 of COc1ccccc1-c1ccc([C@H](C)n2ncc3nc(-n4cc(C(=O)O)cn4)nc(O)c32)cc1 [Example 113] noted as 7.07

Lab book: pIC50 of Cc1ccc(C(C(C)C)n2ncc3nc(-n4cc(C(=O)O)cn4)nc(O)c32)cc1 (single isomer, unassigned) [Example 26] noted as 5.82

Lab book: pIC50 of C[C@@H](c1ccc2ccccc2c1)n1nc(F)c2nc(-n3cc(C(=O)O)cn3)nc(O)c21 [Example 442] noted as 6.44

Lab book: pIC50 of CC(C)C(c1ccc(F)cc1)n1ncc2nc(-n3cc(C(=O)O)cn3)nc(O)c21 (single isomer, unassigned) [Example 355] noted as 6.27

Lab book: pIC50 of CCC(c1ccc(C)cc1)n1ncc2nc(-n3cc(C(=O)O)cn3)nc(O)c21 (stereo not drawn) [Example 328] noted as 6.28

Lab book: pIC50 of Cc1ccc(Cl)cc1C(C)n1ncc2nc(-n3cc(C(=O)O)cn3)nc(O)c21 (single isomer, unassigned) [Example 312] noted as 6.29

----------
Observed IC50 for human HIF-PHD2 (Homo sapiens, UniProt Q9GZT9), reported per entry below.
Numeric only. Scale: nM

Solved cases below.
O=C(O)c1cnn(-c2nc(O)c3c(cnn3C3Cc4ccccc4C3)n2)c1 [Example 395] | 64
C[C@@H](C1CCN(c2ccc(C(F)(F)F)cc2)CC1)n1ncc2nc(-n3cc(C(=O)O)cn3)nc(O)c21 [Example 431] | 17
O=C(O)c1cnn(-c2nc(O)c3c(cnn3C3CCCCCC3)n2)c1 [Example 393] | 41
CCC(c1ccc(F)c(F)c1)n1ncc2nc(-n3cc(C(=O)O)cn3)nc(O)c21 (single isomer, unassigned) [Example 331] | 19
O=C(O)c1cnn(-c2nc(O)c3c(cnn3CCCc3ccc4ccccc4c3)n2)c1 [Example 131] | 72

Lab book: IC50 of CC(C)(C)Cn1ncc2nc(-n3cc(C(=O)O)cn3)nc(O)c21 [Example 491] noted as 99

----------
- Assayed System: human HIF-PHD3 (Homo sapiens, UniProt Q9H6Z9)
- Sequence (Q9H6Z9 whole entry): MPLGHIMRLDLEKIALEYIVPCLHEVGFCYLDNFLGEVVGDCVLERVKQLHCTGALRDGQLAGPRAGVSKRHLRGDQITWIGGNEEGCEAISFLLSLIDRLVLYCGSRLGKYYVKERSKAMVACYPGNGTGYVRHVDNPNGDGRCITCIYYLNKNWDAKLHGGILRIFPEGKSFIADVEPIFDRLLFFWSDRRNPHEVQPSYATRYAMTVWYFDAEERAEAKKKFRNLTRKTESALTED
Measured Parameter: pIC50
By convention, pIC50 is the negative base-10 log of a molar concentration.

Solved cases below.
CCC(c1ccc(Cl)c(C)c1)n1ncc2nc(-n3cc(C(=O)O)cn3)nc(O)c21 (stereo not shown) [Example 346] | 6.28
Cc1ccc(C(C)n2ncc3nc(-n4cc(C(=O)O)cn4)nc(O)c32)cc1F (single isomer, unassigned) [Example 296] | 6.32
O=C(O)c1cnn(-c2nc(O)c3c(cnn3Cc3ccc(-c4ccc(F)cc4)cc3)n2)c1 [Example 66] | 6.96

Now let's try a different one.
Lab book: pIC50 of Cc1nn(CC(C)(C)C)c2c(O)nc(-n3cc(C(=O)O)cn3)nc12 [Example 500] noted as 6.12

The reported measurements were obtained from patent US20150239889A1.
